Test system: Saccharomyces cerevisiae BY4741 SeMeCo community
Test Description: z-score of subpopulation abundance vs DMSO median, subpopulation auxotrophic for HUM; higher = larger share of this subpopulation than in DMSO controls
Experimental Parameters: 10 µM; 24 h; SM minimal medium; subpopulation (auxotrophy): HUM
Structures can show the parent of a compound that is named as a salt.
Decision: z-score of subpopulation abundance >= 0.8 yields 1, all other cases yield -1.

- Compound: "NC(=O)N/N=C/c1ccc([N+](=O)[O-])o1"
  Experimental System: "Saccharomyces cerevisiae BY4741 SeMeCo community"
  Group: -1
- Compound: "Clc1ccccc1C(c1ccccc1)(c1ccccc1)n1ccnc1"
  Experimental System: "Saccharomyces cerevisiae BY4741 SeMeCo community"
  Group: 1
- Compound: "CC[C@@H]1/C=C(\\C)C[C@H](C)C[C@H](OC)[C@H]2O[C@@](O)(C(=O)C(=O)N3CCCC[C@H]3C(=O)O[C@H](/C(C)=C/[C@@H]3CC[C@@H](O)[C@H](OC)C3)[C@H](C)[C@@H](O)CC1=O)[C@H](C)C[C@@H]2OC"
  Experimental System: "Saccharomyces cerevisiae BY4741 SeMeCo community"
  Group: 1
- Compound: "C[N+]1(C)[C@@H]2C[C@@H](OC(=O)C(O)(c3cccs3)c3cccs3)C[C@H]1[C@@H]1O[C@@H]12 [Tiotropium Bromide hydrate]"
  Experimental System: "Saccharomyces cerevisiae BY4741 SeMeCo community"
  Group: -1
- Compound: "CC[C@H]1OC(=O)[C@H](C)[C@@H](O[C@H]2C[C@@](C)(OC)[C@@H](O)[C@H](C)O2)[C@H](C)[C@@H](O[C@@H]2O[C@H](C)C[C@H](N(C)C)[C@H]2O)[C@](C)(O)C[C@@H](C)CN(C)[C@H](C)[C@@H](O)[C@]1(C)O [Azithromycin Dihydrate]"
  Experimental System: "Saccharomyces cerevisiae BY4741 SeMeCo community"
  Group: 1

// query Answer whether z-score of subpopulation abundance of CC(C)c1nc(N(C)S(C)(=O)=O)nc(-c2ccc(F)cc2)c1/C=C/[C@@H](O)C[C@@H](O)CC(=O)O [Rosuvastatin] is greater than or equal to 0.8.
// result 1

// query Answer whether z-score of subpopulation abundance of OC[C@H]1O[C@H](OCC2O[C@@H](O)[C@H](O)[C@@H](O)[C@@H]2O)[C@H](O)[C@@H](O)[C@H]1O (stereo partly specified) is greater than or equal to 0.8.
// result -1

// query Answer whether z-score of subpopulation abundance of CN(C)C[C@@H]1CCn2cc(c3ccccc32)C2=C(C(=O)NC2=O)c2cn(c3ccccc23)CCO1 is greater than or equal to 0.8.
// result -1

// query Answer whether z-score of subpopulation abundance of CCN1CCC[C@H]1CNC(=O)c1cc(S(N)(=O)=O)ccc1OC [Levosulpiride] is greater than or equal to 0.8.
// result -1

// query Answer whether z-score of subpopulation abundance of Cc1nc(NC(=O)N2CCC[C@H]2C(N)=O)sc1-c1ccnc(C(C)(C)C(F)(F)F)c1 is greater than or equal to 0.8.
// result -1

// query Answer whether z-score of subpopulation abundance of CCOC(=O)C1=C(COCCN)NC(C)=C(C(=O)OC)C1c1ccccc1Cl (stereo unspecified) [Amlodipine] is greater than or equal to 0.8.
// result -1

// query Answer whether z-score of subpopulation abundance of CO/N=C(\C(=O)N[C@@H]1C(=O)N2C(C(=O)[O-])=C(C[N+]3(C)CCCC3)CS[C@H]12)c1csc(N)n1 [Cefepime Dihydrochloride Monohydrate] is greater than or equal to 0.8.
// result -1

// query Answer whether z-score of subpopulation abundance of Clc1ccc(COC(Cn2ccnc2)c2ccc(Cl)cc2Cl)cc1 (stereo unspecified) is greater than or equal to 0.8.
// result 1

// query Answer whether z-score of subpopulation abundance of CC(=O)O[C@H]1C[C@@]2(C)[C@@H](C[C@@H](O)[C@H]3[C@@]4(C)CC[C@@H](O)[C@@H](C)[C@@H]4CC[C@@]32C)/C1=C(\CCC=C(C)C)C(=O)O [Fusidate Sodium] is greater than or equal to 0.8.
// result 1

###

Test system: Saccharomyces cerevisiae BY4741 SeMeCo community
Test Description: z-score of subpopulation abundance vs DMSO median, subpopulation auxotrophic for L; higher = larger share of this subpopulation than in DMSO controls
Experimental Parameters: 10 µM; 24 h; SM minimal medium; subpopulation (auxotrophy): L
Counter-ions that a name gives are not always drawn.
Classification field. Basis: z-score of subpopulation abundance. Definitions: low = under -0.6, intermediate = from -0.6 up to -0.06, high = -0.06 and over

Examples with answers:
- Compound: "O=C(c1ccccc1)c1ccc2n1CCC2C(=O)O (configuration not stated) [Ketorolac tromethamine salt]"
  Experimental System: "Saccharomyces cerevisiae BY4741 SeMeCo community"
  Group: "high"
- Compound: "CN[C@@H]1[C@H](O)[C@H](NC)[C@H]2O[C@@]3(O)C(=O)C[C@@H](C)O[C@H]3O[C@@H]2[C@H]1O [Spectinomycin 2HCl]"
  Experimental System: "Saccharomyces cerevisiae BY4741 SeMeCo community"
  Group: "low"
- Compound: "C#CCC(Cc1cnc2nc(N)nc(N)c2n1)c1ccc(C(=O)N[C@@H](CCC(=O)O)C(=O)O)cc1 (some centres not stated) [Pralatrexate]"
  Experimental System: "Saccharomyces cerevisiae BY4741 SeMeCo community"
  Group: "high"

// query Entry Cc1cc2c(s1)Nc1ccccc1N=C2N1CCN(C)CC1 belongs to which category?
// result intermediate

// query Entry CCn1cc(C(=O)O)c(=O)c2cc(F)c(N3CCNCC3)nc21 [Enoxacin Sesquihydrate] belongs to which category?
// result low

// query Entry OCc1ccccc1O[C@@H]1O[C@H](CO)[C@@H](O)[C@H](O)[C@H]1O belongs to which category?
// result high

###

Test system: Saccharomyces cerevisiae BY4741 SeMeCo community
Test Description: z-score of subpopulation abundance vs DMSO median, subpopulation auxotrophic for HL; higher = larger share of this subpopulation than in DMSO controls
Experimental Parameters: 10 µM; 24 h; SM minimal medium; subpopulation (auxotrophy): HL
Counter-ions that a name gives are not always drawn.
Endpoint Label: z-score of subpopulation abundance
The answer should be written as a number, with no unit following it.

Past entries and their recorded results:
- Molecule: "COC(=O)C1=C(C)NC(C)=C(C(=O)OC2CCCN(Cc3ccccc3)C2)C1c1cccc([N+](=O)[O-])c1 (centres undefined) [Benidipine HCl]"
  Endpoint Label: "z-score of subpopulation abundance"
  Measured Value: 1.55
- Molecule: "Nc1ccc(S(N)(=O)=O)cc1 [Sulfanilamide]"
  Endpoint Label: "z-score of subpopulation abundance"
  Measured Value: -1.05
- Molecule: "C/C(=C\\C(=O)OCCCCCCCCC(=O)O)C[C@@H]1OC[C@H](C[C@@H]2O[C@H]2[C@@H](C)[C@H](C)O)[C@@H](O)[C@H]1O"
  Endpoint Label: "z-score of subpopulation abundance"
  Measured Value: -0.37

// query Please give measured z-score of subpopulation abundance of the following entry: O=C1N=C(O)NC1(c1ccccc1)c1ccccc1 [Phenytoin Sodium]
// result -0.83

###

Test system: Saccharomyces cerevisiae BY4741 SeMeCo community
Test Description: z-score of subpopulation abundance vs DMSO median, subpopulation auxotrophic for U; higher = larger share of this subpopulation than in DMSO controls
Experimental Parameters: 10 µM; 24 h; SM minimal medium; subpopulation (auxotrophy): U
Where a name gives a salt, the structure may show the parent alone.
Decision: z-score of subpopulation abundance >= 0.4 yields MET, all other cases yield NOT MET.

Examples with answers:
- Molecule: "Cc1nccn1CC1CCc2c(c3ccccc3n2C)C1=O (stereo unspecified) [Ondansetron HCl]"
  Group: "MET"
- Molecule: "C[C@@H](O)[C@H]1C(=O)N2C(C(=O)OCOC(=O)C(C)(C)C)=C(SC3CN(C4=NCCS4)C3)[C@H](C)[C@H]12"
  Group: "NOT MET"
- Molecule: "CC[C@H](c1ccc(O)cc1)[C@@H](CC)c1ccc(O)cc1"
  Group: "NOT MET"
- Molecule: "CN[C@@H]1[C@@H](O[C@H]2O[C@H](CO)[C@@H](N)[C@H](O)[C@H]2O)OC2C[C@@H](N)[C@@H](O[C@H]3[C@H](O)[C@@H](O)[C@H](N)C[C@@H]3N)OC2[C@@H]1O (stereo partly specified) [Apramycin Sulfate]"
  Group: "MET"
- Molecule: "CC(c1cc2ccccc2s1)N(O)C(N)=O (stereo unspecified)"
  Group: "NOT MET"

// query Answer whether z-score of subpopulation abundance of O=C1CCc2cc(OCCCCc3nnnn3C3CCCCC3)ccc2N1 is greater than or equal to 0.4.
// result NOT MET

// query Answer whether z-score of subpopulation abundance of OC[C@H]1O[C@H](OCC2O[C@@H](O)[C@H](O)[C@@H](O)[C@@H]2O)[C@H](O)[C@@H](O)[C@H]1O (stereo partly specified) is greater than or equal to 0.4.
// result MET

// query Answer whether z-score of subpopulation abundance of COc1ccnc(C[S+]([O-])c2nc3cc(OC(F)F)ccc3[nH]2)c1OC (stereo unspecified) is greater than or equal to 0.4.
// result NOT MET

// query Answer whether z-score of subpopulation abundance of CO/N=C(\C(=O)N[C@@H]1C(=O)N2C(C(=O)O)=C(COC(N)=O)CS[C@H]12)c1ccco1 [Cefuroxime sodium] is greater than or equal to 0.4.
// result MET

// query Answer whether z-score of subpopulation abundance of C#CCN(C)Cc1ccccc1 [Pargyline hydrochloride] is greater than or equal to 0.4.
// result MET

// query Answer whether z-score of subpopulation abundance of Clc1ccccc1C(c1ccccc1)(c1ccccc1)n1ccnc1 is greater than or equal to 0.4.
// result NOT MET

// query Answer whether z-score of subpopulation abundance of OCCOCCN1CCN(C2=Nc3ccccc3Sc3ccccc32)CC1 [Quetiapine Fumarate] is greater than or equal to 0.4.
// result NOT MET

// query Answer whether z-score of subpopulation abundance of c1cnc2cc3c(cc2n1)[C@@H]1CNC[C@H]3C1 [Varenicline Tartrate] is greater than or equal to 0.4.
// result NOT MET
